method-description: in vivo
Set-up: species or system mice
measurement-parameters: male, C57BL/6J, mouse, iv, 20 mg/kg
measure: half-life

>>> meas_value("COc1cc(/C=C/c2ccc(O)cc2)cc(OC)c1")
"~77.9 min"

// next item, half-life requested
Memo: `O=c1c(O)c(-c2ccc(O)c(O)c2)oc2cc(O)cc(O)c12` , reported half-life: ~20.1 min

----------
method-description: in vivo
Set-up: species or system mice
measurement-parameters: mouse
measure: half-life

Quick note, half-life for Oc1ccc(C=Cc2cc(O)cc(O)c2)cc1 [RESV, resveratrol, reference compound] landed at ~10.2 min
